Where do the numbers come from? From the supplement of paper PMC6555819.

Tested on: PPARg:RXRa 270nM:90nM, anti-RXR (NR concentration 270 nM, RXRa partner concentration 90 nM)
Test: PBM binding z-score (relative to random genomic background probes); higher = stronger binding; sequences stand for … in GC…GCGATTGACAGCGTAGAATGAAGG
Mark condition not met for PBM binding z-score values under 2, and condition met for everything at or above.

- residues: "TCTTGTAGATCAAGCATGTTAAGAAAGCCTGAGT"
  class name: "condition not met"
- residues: "CTCGAAAGGTCGTGCTCAGGTGAGTAAACCAAAC"
  class name: "condition met"
- residues: "TCTAGTTGGCCAAAGGTCACACACTCGAAATGCG"
  class name: "condition met"
- residues: "AGAATGAGGTTATACGTAGATCAGGCAAGAAAGT"
  class name: "condition met"
- residues: "ATCGAAAGGTCGACGAGGTAAGTATACACCGTTT"
  class name: "condition met"
- residues: "CCTTGCAGGCCAATCTGGGTCACTCAAGGCTTGA"
  class name: "condition met"
- residues: "TCATATAGGTAATACAGGTGAACGTCGGCATCTA"
  class name: "condition met"
- residues: "GCTAGTTGCTCAGTAAAAGGTCACACACCGGTCG"
  class name: "condition met"
- residues: "GCTGCTAGGTCAACTGATAGTCAGCTAAAGCTCG"
  class name: "condition met"
- residues: "CCAGATAGGTGAAAGGTAACTCAGTCTGGTACGC"
  class name: "condition met"
- residues: "TCTAGTTGGTCACAGGTCACACACTCGAAATGCG"
  class name: "condition met"
- residues: "TTACCAAGGTGAAAGGTCGTTGACGCACGCCTTG"
  class name: "condition met"
- residues: "GCTGCTAGGTCAGGTTGGTCAGCTCACGGGTACG"
  class name: "condition not met"
- residues: "CAGCCTAGGTCAGGGTCAGTATAGGAGGAACGTT"
  class name: "condition met"
- residues: "CGAACTGGGTCATCCAGGACAGTGAATACATTGA"
  class name: "condition met"
- residues: "CTCTAAAGGTCGGTTGAGGTGAGTATACGGATAA"
  class name: "condition not met"
- residues: "AGAACGAGGGCAATGAGTTGATAGCCCGGGTGGC"
  class name: "condition not met"
- residues: "ACTATTAGTTGAGACGATGGCAACCGATAGGTTG"
  class name: "condition not met"
- residues: "AGCATGAGGTTAAGATCAGGGAAACAGAATACAT"
  class name: "condition not met"
- residues: "GCATATATGTAATACAAGGTGAAAGTCCGATTGT"
  class name: "condition not met"
- residues: "CGTACTGGGCCAAAAAGGTCATTGATGCCGATAA"
  class name: "condition met"
- residues: "CGTCCAAGGTCAATGCTAGGTCAGTAAAAGCATT"
  class name: "condition met"
- residues: "CTCGAAAGGTCGGGCTCAGGTGAGTATACCAAAC"
  class name: "condition not met"
- residues: "ATCGAAAGGTCGACAAGGTGAGTATACACCGTTT"
  class name: "condition met"
- residues: "GCTCGGAGGACAAGGTCAGAACTTTGTCCGTAGA"
  class name: "condition not met"
- residues: "TCTGCTAGGACAACGATGGTCAGCTAATCTGCTA"
  class name: "condition not met"
- residues: "CCTACTGGGCCAAGGTCAGTGATCAGTCAAAGCA"
  class name: "condition met"
- residues: "CGTCCAAGGTCATAGGAGGACAGTGAAGACAGAT"
  class name: "condition met"
- residues: "CCTAGTTGGTCAAGGACACACACGCTATAGGTAC"
  class name: "condition not met"
- residues: "CCTTACGGGTCACTGACACGTTATAGCATTTGGA"
  class name: "condition met"
- residues: "CCAGACAGGTGAAAGATAACTCAGTCTGGTACGC"
  class name: "condition not met"
